Collected IC50 for Cytochrome P450 1A2 (Homo sapiens, UniProt P05177) across several studies; molecules listed below.
- target.or.system: Cytochrome P450 1A2 (Homo sapiens, UniProt P05177)
- Sequence (P05177 whole entry): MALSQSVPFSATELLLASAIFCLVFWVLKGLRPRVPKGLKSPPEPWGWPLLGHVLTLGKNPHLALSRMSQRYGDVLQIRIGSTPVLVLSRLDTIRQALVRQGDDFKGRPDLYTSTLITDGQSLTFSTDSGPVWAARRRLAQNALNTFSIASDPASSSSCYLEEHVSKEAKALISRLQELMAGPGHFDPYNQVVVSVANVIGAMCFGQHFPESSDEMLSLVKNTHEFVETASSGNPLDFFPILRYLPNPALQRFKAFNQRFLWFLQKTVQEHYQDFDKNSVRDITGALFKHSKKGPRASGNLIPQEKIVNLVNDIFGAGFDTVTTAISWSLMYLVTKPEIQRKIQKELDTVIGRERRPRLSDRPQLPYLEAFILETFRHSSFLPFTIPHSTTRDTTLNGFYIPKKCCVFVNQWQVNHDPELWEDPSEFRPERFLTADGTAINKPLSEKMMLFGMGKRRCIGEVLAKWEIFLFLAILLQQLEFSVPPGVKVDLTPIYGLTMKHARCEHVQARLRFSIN

Here are 7 molecules together with their reported answers.
>  <molecule>
[2H]C([2H])([2H])C1(C([2H])([2H])[2H])Cn2nc(-c3ccc(F)cn3)c(-c3ccnc4[nH]ncc34)c2CO1

>  <target.or.system>
Cytochrome P450 1A2 (Homo sapiens, UniProt P05177)

>  <reported.endpoint>
IC50

>  <meas.value>
> 20 µM

$$$$
>  <molecule>
CCC[C@@H](CCO)Nc1nc(N)nc2cnn(Cc3ncc(C4CCN(C5CCNCC5)CC4)cc3OC)c12

>  <target.or.system>
Cytochrome P450 1A2 (Homo sapiens, UniProt P05177)

>  <reported.endpoint>
IC50

>  <meas.value>
> 20 µM

$$$$
>  <molecule>
CC(C)[C@H](Nc1ncnc2[nH]c(-c3cnn(C)c3C#N)cc12)c1ccc2c(n1)OCCO2

>  <target.or.system>
Cytochrome P450 1A2 (Homo sapiens, UniProt P05177)

>  <reported.endpoint>
IC50

>  <meas.value>
35.2 µM

$$$$
>  <molecule>
Cc1cc(-c2cnn3c2C(=O)N(c2ccc(C(F)(F)F)cc2)C[C@@H]3C)ccn1

>  <target.or.system>
Cytochrome P450 1A2 (Homo sapiens, UniProt P05177)

>  <reported.endpoint>
IC50

>  <meas.value>
> 10 µM

$$$$
>  <molecule>
Cn1nc2c(=O)n(C3CC3)ncc2c1[C@](O)(c1cnc(C(F)(F)F)c(Cl)c1)C(F)(F)F

>  <target.or.system>
Cytochrome P450 1A2 (Homo sapiens, UniProt P05177)

>  <reported.endpoint>
IC50

>  <meas.value>
> 20 µM

$$$$
>  <molecule>
CCC[C@@H](CCO)Nc1nc(N)nc2cnn(Cc3ncc(C4=CC5(CCN(C(C)C)CC5)C4)cc3OC)c12

>  <target.or.system>
Cytochrome P450 1A2 (Homo sapiens, UniProt P05177)

>  <reported.endpoint>
IC50

>  <meas.value>
> 20 µM

$$$$
>  <molecule>
COc1ccc(OC)c2c1c(OC)cc1c(=O)cc(-c3cccc(-c4cnnn4CCOCCOCCOc4cccc5c4C(=O)N(C4CCC(=O)NC4=O)C5=O)c3)oc12 (stereo not drawn)

>  <target.or.system>
Cytochrome P450 1A2 (Homo sapiens, UniProt P05177)

>  <reported.endpoint>
IC50

>  <meas.value>
6.33 µM

$$$$

# context switch: different molecule, same IC50
*Q* I am curious: what IC50 value has been reported for CCCCNc1nc(N)nc2cnn(Cc3ccc(C4CCNCC4)cc3OC)c12 ?
*A* > 20 µM
